Target: AsPC-1 HiBiT-KRASG12D (Homo sapiens, UniProt P01116, G12D)
Construct: insert the HiBiT tag onto the N-terminus of one or more of the endogenous KRAS alleles; endogenous in cells; host or cells: AsPC-1 (ATCC CRL-1682), CRISPR-Cas9 knock-in clone, one tagged allele
Sequence (P01116 1-188 isoform P01116-2 G12D): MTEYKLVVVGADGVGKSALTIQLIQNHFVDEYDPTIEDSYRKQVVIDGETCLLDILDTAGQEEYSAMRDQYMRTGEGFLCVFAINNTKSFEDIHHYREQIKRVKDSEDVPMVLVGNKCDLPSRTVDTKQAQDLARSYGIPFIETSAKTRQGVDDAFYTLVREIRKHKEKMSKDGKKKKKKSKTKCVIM
Assay: HiBiT degradation assay (G12D), AsPC-1 HiBiT-KRASG12D cells
Assay type: cell-based
Details: ASPC1, AsPC-1 HiBiT-KRASG12D cells, 24 hours treatment, maximum degradation observed
Dmax: recorded values

Which Dmax reading was recorded for the compound C#Cc1c(F)ccc2cc(O)cc(-c3ncc4c(N5CC6CCC(C5)N6)nc(OC[C@@H]5CC[C@@H](COC(=O)N6CCN(c7cc([C@H](C(=O)N8C[C@H](O)C[C@H]8C(=O)N[C@@H](C)c8ccc(-c9scnc9C)cc8)C(C)C)on7)CC6)N5C)nc4c3F)c12 [Compound 59] ?
80 to 100%

Now the same for C#Cc1c(F)ccc2cc(O)cc(-c3ncc4c(N5CC6CCC(C5)N6)nc(OCCN5CCC(CC6CCN(c7cc([C@H](C(=O)N8C[C@H](O)C[C@H]8C(=O)N[C@@H](C)c8ccc(-c9scnc9C)cc8)C(C)C)on7)CC6)CC5)nc4c3F)c12 (relative stereo) [Compound 307]
80 to 100%

Now the same for CCc1cccc2cc(O)cc(-c3ncc4c(N5CC6CCC(C5)N6)nc(OCCN5CCC(OCCOCC(=O)N[C@H](C(=O)N6C[C@H](O)C[C@H]6C(=O)N[C@@H](C)c6ccc(-c7scnc7C)cc6)C(C)(C)C)CC5)nc4c3F)c12 [Compound 11]
60 to 80%

Now the same for CCc1cccc2cc(O)cc(-c3ncc4c(N5CC6CCC(C5)N6)nc(OC[C@]56CCCN5[C@@H](COC(=O)N(C)Cc5cc([C@H](C(=O)N7C[C@H](O)C[C@H]7C(=O)N[C@@H](C)c7ccc(-c8scnc8C)cc7)C(C)C)on5)CC6)nc4c3F)c12 [Compound 92]
80 to 100%

Now the same for C#Cc1c(F)ccc2cc(O)cc(-c3ncc4c(N5CC6CCC(C5)N6)nc(OCCN5CCC6(CC5)CN(c5cc(C(C(=O)N7C[C@H](O)C[C@H]7C(=O)N[C@@H](C)c7ccc(-c8ccnn8C)cc7)C(C)C)on5)C6)nc4c3F)c12 (single isomer, unassigned) [Compound 83]
80 to 100%

* * *

Biological target: AsPC-1 HiBiT-KRASG12D (Homo sapiens, UniProt P01116, G12D)
Construct: insert the HiBiT tag onto the N-terminus of one or more of the endogenous KRAS alleles; endogenous in cells; host or cells: AsPC-1 (ATCC CRL-1682), CRISPR-Cas9 knock-in clone, one tagged allele
Experiment: HiBiT degradation assay (G12D), AsPC-1 HiBiT-KRASG12D cells
Assay type: cell-based
Conditions: AsPC-1 HiBiT-KRASG12D cells, 24 hours treatment, HiBiT luminescence
Observable: DC50

Molecule	DC50
C#Cc1c(F)ccc2cc(O)cc(-c3ncc4c(N5CC6CCC(C5)N6)nc(OCCN5CCC(F)(CN6CCN(c7cc([C@H](C(=O)N8C[C@H](O)C[C@H]8C(=O)N[C@@H](C)c8ccc(-c9ccnn9C)cc8)C(C)C)on7)CC6)CC5)nc4c3F)c12 [Compound 198]	< 0.6 µM
C#Cc1c(F)ccc2cc(O)cc(-c3ncc4c(N5CC6CCC(C5)N6)nc(OC[C@@H]5CC[C@@H](COC(=O)N6CCN(c7cc([C@H](C(=O)N8C[C@H](O)C[C@H]8C(=O)N[C@@H](C)c8ccc(-c9scnc9C)cc8)C(C)C)on7)CC6)N5C)nc4c3F)c12 [Compound 59]	< 0.6 µM
CCc1cccc2cc(O)cc(-c3ncc4c(N5CCCCCC5)nc(OC[C@]56CCCN5[C@H](COC(=O)N5CCC(Oc7cc([C@@H](C(=O)N8C[C@H](O)C[C@H]8C(=O)N[C@@H](C)c8ccc(-c9scnc9C)cc8)C(C)C)on7)CC5)CC6)nc4c3F)c12 [Compound 282]	0.6 to 1 µM

The record that follows has no DC50 shown yet.
Which DC50 reading was recorded for the molecule CCc1cccc2cc(O)cc(-c3ncc4c(N5CCCCCC5)nc(OC[C@]56CCCN5[C@H](COC(=O)N5CC(Oc7cc([C@H](C(=O)N8C[C@H](O)C[C@H]8C(=O)N[C@@H](C)c8ccc(-c9scnc9C)cc8)C(C)C)on7)C5)CC6)nc4c3F)c12 [Compound 300] ?
< 0.6 µM

* * *

Biological target: AsPC-1 HiBiT-KRASG12D (Homo sapiens, UniProt P01116, G12D)
Construct: insert the HiBiT tag onto the N-terminus of one or more of the endogenous KRAS alleles; endogenous in cells; host or cells: AsPC-1 (ATCC CRL-1682), CRISPR-Cas9 knock-in clone, one tagged allele
Test: HiBiT degradation assay (G12D), AsPC-1 HiBiT-KRASG12D cells
Format: cell-based
Conditions: ASPC1, AsPC-1 HiBiT-KRASG12D cells, 24 hours treatment, maximum degradation observed
Dmax: recorded values

Compound	Dmax
CCc1cccc2cc(O)cc(-c3ncc4c(N5CC6CCC(C5)N6)nc(OC[C@@]56CCCN5[C@H](COc5cc([C@@H](C(=O)N7C[C@H](O)C[C@H]7C(=O)N[C@@H](C)c7ccc(-c8scnc8C)cc7)C(C)C)on5)CC6)nc4c3F)c12 [Compound 30]	20 to 60%

The record that follows has no Dmax shown yet.
Which Dmax reading was recorded for the compound CCc1cccc2cc(O)cc(-c3ncc4c(N5CC6CCC(C5)N6)nc(OCCN5CCC(COc6cc([C@@H](C(=O)N7C[C@H](O)C[C@H]7C(=O)N[C@@H](C)c7ccc(-c8scnc8C)cc7)C(C)C)on6)CC5)nc4c3F)c12 [Compound 8] ?
20 to 60%

* * *

Molecular target: AsPC-1 HiBiT-KRASG12D (Homo sapiens, UniProt P01116, G12D)
Construct: insert the HiBiT tag onto the N-terminus of one or more of the endogenous KRAS alleles; endogenous in cells; host or cells: AsPC-1 (ATCC CRL-1682), CRISPR-Cas9 knock-in clone, one tagged allele
Assay: HiBiT degradation assay (G12D), AsPC-1 HiBiT-KRASG12D cells
Assay type: cell-based
Settings: AsPC-1 HiBiT-KRASG12D cells, 24 hours treatment, HiBiT luminescence
Observable: DC50

Some solved cases for reference:
Molecule	DC50
CCc1cccc2cc(O)cc(-c3ncc4c(N5CC6CCC(C5)N6)nc(OCCN5CCN(CC6CN(c7cc([C@H](C(=O)N8C[C@H](O)C[C@H]8C(=O)N[C@@H](C)c8ccc(-c9scnc9C)cc8)C(C)C)on7)C6)CC5)nc4c3F)c12 [Compound 220]	< 600 nM
CCc1cccc2cc(O)cc(-c3ncc4c(N5CC6CCC(C5)N6)nc(OCCN5CCN(c6cc([C@@H](C(=O)N7C[C@H](O)C[C@H]7C(=O)N[C@@H](C)c7ccc(-c8scnc8C)cc7)C(C)C)on6)CC5)nc4c3F)c12 (relative stereo) [Compound 136]	> 3000 nM
CCc1cccc2cc(O)cc(-c3ncc4c(N5CC6CCC(C5)N6)nc(OC[C@@]56CCCN5[C@@H](COC(=O)N5CCN(c7cc(C(C(=O)N8C[C@H](O)C[C@H]8C(=O)N[C@@H](C)c8ccc(-c9scnc9C)cc8)C(C)C)on7)CC5)CC6)nc4c3F)c12 (single isomer, unassigned) [Compound 108]	< 600 nM

The record that follows has no DC50 shown yet.
Which DC50 reading was recorded for the molecule CCc1cccc2cc(O)cc(-c3ncc4c(N5CC6CCC(C5)N6)nc(OC[C@]56CCCN5[C@@H](COC(=O)NCc5cc([C@@H](C(=O)N7C[C@H](O)C[C@H]7C(=O)N[C@@H](C)c7ccc(-c8scnc8C)cc7)C(C)C)on5)CC6)nc4c3F)c12 [Compound 103] ?
1000 to 3000 nM

* * *

Target: AsPC-1 HiBiT-KRASG12D (Homo sapiens, UniProt P01116, G12D)
Construct: insert the HiBiT tag onto the N-terminus of one or more of the endogenous KRAS alleles; endogenous in cells; host or cells: AsPC-1 (ATCC CRL-1682), CRISPR-Cas9 knock-in clone, one tagged allele
Experiment: HiBiT degradation assay (G12D), AsPC-1 HiBiT-KRASG12D cells
Assay type: cell-based
Settings: AsPC-1 HiBiT-KRASG12D cells, 24 hours treatment, HiBiT luminescence
DC50: recorded values

Smiles record	DC50
CCc1cccc2cc(O)cc(-c3ncc4c(N5CC6CCC(C5)N6)nc(OC[C@@]56CCCN5[C@H](CN5CCC(COc7cc([C@@H](C(=O)N8C[C@H](O)C[C@H]8C(=O)N[C@@H](C)c8ccc(-c9scnc9C)cc8)C(C)C)on7)CC5)CC6)nc4c3F)c12	600 to 1000 nM
CCc1cccc2cc(O)cc(-c3ncc4c(N5CCCCCC5)nc(OC[C@@]56CCCN5[C@H](COC(=O)N5CCN(c7cc([C@H](C(=O)N8C[C@H](O)C[C@H]8C(=O)N[C@@H](C)c8ccc(-c9scnc9C)cc8)C(C)C)on7)[C@H](C)C5)CC6)nc4c3F)c12	< 600 nM
CCc1cccc2cc(O)cc(-c3ncc4c(N5CC6CCC(C5)N6)nc(N5CC(N6CCC(CC7CN(c8cc([C@@H](C(=O)N9C[C@H](O)C[C@H]9C(=O)N[C@@H](C)c9ccc(-c%10scnc%10C)cc9)C(C)C)on8)C7)CC6)C5)nc4c3F)c12	> 3000 nM

The record that follows has no DC50 shown yet.
Which DC50 reading was recorded for the molecule CCc1cccc2cc(O)cc(-c3ncc4c(N5CC6CCC(C5)N6)nc(OCCN5CCC6(CC5)CC(Oc5cc([C@@H](C(=O)N7C[C@H](O)C[C@H]7C(=O)N[C@@H](C)c7ccc(-c8scnc8C)cc7)C(C)C)on5)C6)nc4c3F)c12 ?
1000 to 3000 nM
